molecular target: PCSK9; test: Biacore SPR
Sequence (Q8NBP7 31-152, chain 1 of 2): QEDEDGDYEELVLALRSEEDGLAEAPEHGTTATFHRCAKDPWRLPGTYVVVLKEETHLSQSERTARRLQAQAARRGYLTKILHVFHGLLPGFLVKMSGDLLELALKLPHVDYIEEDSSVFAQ
Sequence (Q8NBP7 153-692, chain 2 of 2): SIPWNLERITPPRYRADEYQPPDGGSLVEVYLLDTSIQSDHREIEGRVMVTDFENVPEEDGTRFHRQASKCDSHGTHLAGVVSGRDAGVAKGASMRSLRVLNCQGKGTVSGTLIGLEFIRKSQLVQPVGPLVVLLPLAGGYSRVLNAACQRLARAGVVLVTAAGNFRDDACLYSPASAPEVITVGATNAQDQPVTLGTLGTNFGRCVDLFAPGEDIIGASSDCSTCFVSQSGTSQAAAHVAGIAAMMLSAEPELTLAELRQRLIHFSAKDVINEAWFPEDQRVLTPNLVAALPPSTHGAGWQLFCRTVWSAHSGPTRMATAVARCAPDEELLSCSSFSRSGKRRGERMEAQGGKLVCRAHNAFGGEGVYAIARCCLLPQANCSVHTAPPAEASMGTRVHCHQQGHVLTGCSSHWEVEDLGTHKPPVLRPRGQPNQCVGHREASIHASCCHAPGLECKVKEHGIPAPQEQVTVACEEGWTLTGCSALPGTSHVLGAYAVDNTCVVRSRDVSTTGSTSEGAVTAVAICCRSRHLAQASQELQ
For each record, write down the corresponding Kd.
Answers are plain numbers, in nM.

These solved cases illustrate the format of a correct answer.
binder	Kd [nM]
1B20 variant H7 (antibody, part only; not given: light chain, probably the common parent VL, V domains shown, part only) VH: QVQLVQSGAEVKKPGESLKISCKGSGYSFTDYYISWVRQMPGKGPEWMGMIYPGDSYTRYSQKFQGQVTISADKSISTAYLQWSSLKASDTAIYYCARDHWSRPLSDIWGQGTLVTVSS	4.9
1B20 variant E4 (antibody, part only; not given: light chain, probably the common parent VL, V domains shown, part only) VH: QVQLVQSGAEVKKPGESLKISCKGSGYSFTNYYISWVRQMPGKGLEWMGWIYPGDSYTSYNQKFQGQVTISADKSISTAYLQWSSLKASDTAMYYCARDYWSKPYSDVWGQGTLVTVSS	2.38
1B20 variant C7 (antibody, part only; not given: light chain, probably the common parent VL, V domains shown, part only) VH: QVQLVQSGAEVKKPGESLKISCKGSGYSFTDYYISWVRQMPGKGLEWMGWIYPGDSYTHYSHNFQGQVTISADKSISTAYLQWSSLKASDTAMYYCARDHWSRPFSDVWGQGTLVTVSS	2.53
1B20 variant A7 (antibody, part only; not given: light chain, V domains shown, part only) VH: QVQLVQSGAEVKKPGESLKISCKGSGYSFTNYYISWVRQMPGKGLEWMGIIYPGDSYTRYNPNFQGQVTISADKSISTAYLQWSSLKASDTAMYYCARDYWSKPLSDVWGQGTLVTVSS	1.28
1B20 variant A6 (antibody, part only; not given: light chain, V domains shown, part only) VH: QVQLVQSGAEVKKPGESLKISCKGSGYSFTNYYISWVRQMPGKGLEWMGLIYPGDSYTRYNPSFQGQVTISADKSISTAYLQWSSLKASDTAMYYCARDYYSRPFSDIWGQGTLVTVSS	1.39

Please state, for each entry, its recorded Kd.
1. 1B20 variant F8 (antibody, part only; not given: light chain, probably the common parent VL, V domains shown, part only) VH: QVQLVQSGAEVKKPGESLKISCKGSGYSFTNYYISWVRQMPGKGLEWMGMIYPGDSYTNYNQKFQGQVTISADKSISTAYLQWSSLKASDTAMYYCARDYWSRPYSDIWGQGTLVTVSS
2. 1B20 variant H3 (antibody, part only; not given: light chain, probably the common parent VL, V domains shown, part only) VH: QVQLVQSGAEVKKPGESLKISCKGSGYSFTNYYITWVRQMPGKGLEWMGMIYPGDSYTHYSQRFQGQVTISADKSISTAYLQWSSLKASDTAIYYCARDHWSRPLFDVWGQGTLVTVSS
3. 1B20 variant C6 (antibody, part only; not given: light chain, V domains shown, part only) VH: QVQLVQSGAEVKKPGESLKISCKGSGYSFTNYYITWVRQMPGKGLEWMGMIYPGDSYTHYNPSFQGQVTISADKSISTAYLQWSSLKASDTAMYYCARDHWYKPLFDIWGQGTLVTVSS
4. 1B20 variant E5 (antibody, part only; not given: light chain, probably the common parent VL, V domains shown, part only) VH: QVQLVQSGAEVKKPGESLKISCKGSGYSFTDYYISWVRQMPGKGLEWMGWIYPGDSYTHYNPNFQGQVTISADKSISTAYLQWSSLKASDTAMYYCARDRWSTPYFDVWGQGTLVTVSS
5. 1B20 variant B5 (antibody, part only; not given: light chain, probably the common parent VL, V domains shown, part only) VH: QVQLVQSGAEVKKPGESLKISCKGSGYSFTDYYISWVRQMPGKGLEWMGMIYPGDSYTRYSPSFQGQVTISADKSISTAYLQSSSLKASDTAMYYCARDYWYKPFSDVWGQGTLVTVSS
6. 1B20 variant G3 (antibody, part only; not given: light chain, probably the common parent VL, V domains shown, part only) VH: QVQLVQSGAEVKKPGESLKISCKGSGYSFTNYYISWVRQMPGKGLEWMGLIYPGDSYTRYNPKFQGQVTISADKSISTAYLQWSSLKASDTAMYYCARDYYSRPYSDVWGQGTLVTVSS
7. 1B20 variant A5 (antibody, part only; not given: light chain, probably the common parent VL, V domains shown, part only) VH: QVQLVQSGAEVKKPGESLKISCKGSGYSFTDYYISWVRQMPGKGLEWMGWIYPGDSYTHYNPMFQGQVTISADKSISTAYLQWSSLKASDTAMYYCARDRWSRPYFDIWGQGTLVTVSS
8. 1B20 variant G4 (antibody, part only; not given: light chain, probably the common parent VL, V domains shown, part only) VH: QVQLVQSGAEVKKPGESLKISCKGSGYSFTNYYISWVRQMPGKGLEWMGLIYPGDSYTRYSPRFQGQVTISADKSISTAYLQWSSLKASDTAMYYCARDHGYKPYSDIWGQGTLVTVSS

Key:
[1.35, 1.89, 2.1, 4.22, 1.36, 1.53, 6.81, 2.9]

Working through the 2 binders below one at a time, give Kd for each.
1. 1B20 variant C3 (antibody, part only; not given: light chain, probably the common parent VL, V domains shown, part only) VH: QVKLVQSGAEVKKPGESLKISCKGSGYSFTNYYIAWVRQMPGKGLEWMGIIYPGDSYTHYNPKFQGQVTISADKSISTAYLQWSSLKASDTAMYYCARDHGYKPFSDIWGQGTLVTVSS
2. 1B20 variant B6 (antibody, part only; not given: light chain, probably the common parent VL, V domains shown, part only) VH: QVQLVQSGAEVKKPGESLKISCKGSGYSFTDYYISWVRQMPGKGLEWMGIIYPGDSYTNYNPSFQGQVTISADKSISTAYLQWSSLKASDTAMYYCARDYWYRPFSDIWGQGTLVTVSS

Key:
1. 4.5
2. 2.88

src = patent US20130071379A1
